These data points were gathered from PubChem BioAssay (NCI).

Tested on: MDA-N
EXPERIMENT SUMMARY: NCI tumour cell line growth inhibition, 48 h
# key: entry, value: TGI

Below, each entry is followed by its recorded TGI result.
query: Look up TGI with MDA-N for this compound: CN1CCN(CN2C(=O)C3C4C=CC(C3C2=O)C2C(=O)N(CN3CCN(C)CC3)C(=O)C42)CC1 (stereo unspecified)
result: > 100 µM

query: Please provide the recorded TGI for CCOC(=O)c1ccc(C(=O)/C(C#N)=C2\CCCN2C)[nH]1 , tested on MDA-N.
result: > 100 µM

query: Recall the recorded TGI for CCOC(=O)C1=C(N)Oc2ccc(Br)cc2C1C(C#N)C(=O)OCC (stereo unspecified) with MDA-N and state it.
result: 54.9 µM

query: API: value(readout= TGI, system= MDA-N, query= CSc1ncnc2c1cnn2CCCCO )
result: > 100 µM

***
query: Form field - read-out: TGI; system: MDA-N; submitted item: COC(=O)c1c(O)ccc2c1c1c(n2Cc2ccc(Cl)cc2Cl)C(=O)c2ccccc2C1
result: > 100 µM

query: Hi! What's the reported TGI for COC(=O)C1(OC(=O)Sc2ccccc2)CCN(C)CC1 on MDA-N?
result: 49.4 µM

query: Which measured TGI belongs to C[C@@H]1C[C@](O)([C@@H](C)Cl)C(=O)O[C@@H]2CCN3CC=C(COC(=O)[C@]1(C)O)[C@H]23 , tested on MDA-N?
result: > 100 µM

query: Please tell me: TGI of C[C@@]12CCC3C1C=C1C(=O)c4cc(O)ccc4C(=O)[C@]1(O2)[C@@]3(C)C=O , system MDA-N?
result: 12.6 µM

query: // fetch MDA-N TGI for Cc1nc2ccccc2nc1-c1ccc(N=[N+]([O-])c2ccc(-c3nc4ccccc4nc3C)cc2)cc1
result: > 100 µM

query: Checklist item: TGI tested on MDA-N, entry C[C@H]1C2Cc3cc(N)ccc3[C@@]1(C)CCN2CCc1ccccc1 , value?
result: > 100 µM

query: Look up TGI with MDA-N for this compound: COc1ccc(-c2c(C#N)c(O)n(NS(=O)(=O)c3ccc(C)cc3)c(=O)c2C#N)cc1
result: > 100 µM

* * *

Recorded log10 of TGI for the following compounds
Test system: UACC-62 melanoma
EXPERIMENT SUMMARY: NCI tumour cell line growth inhibition, 48 h
log10 TGI, µM

query: log10 of TGI for Cn1cnc([N+](=O)[O-])c1S(=O)(=O)Oc1ccccc1 ?
result: 1.51

***
query: What measured log10 of TGI goes with COc1c(OC)c(OC)c(C(=O)/C=C/c2ccccc2)c(OC)c1OC ?
result: 1.38

query: Look at this compound and give its reported log10 of TGI. CCN1CCN=c2c3cc(OC)ccc3n3cnc4ccc1c2c43
result: -0.01

query: What measured log10 of TGI goes with CCOC(=O)C(=Cc1cccc(Cl)c1)C(=O)OCC ?
result: 0.55

query: Look up log10 of TGI: O=C(CC(=O)c1ccccc1)CC(O)(c1ccccc1)c1ccccc1
result: 1.17

query: Quick check: log10 of TGI of CC(=O)OC1(C#N)CC2OC1C1C2N=NN1C(=O)OC(C)(C)C (stereo unspecified) ?
result: 1.66

query: Give its log10 of TGI value. Item: Oc1ccc(-c2nc(-c3ccc(F)cc3)c(-c3ccc4ccccc4n3)[nH]2)cc1
result: 1.37
